- EXPERIMENT NOTES: Novel Modifiers of Survival Motor Neuron (SMN) Protein: Gene Identification via Genome-wide siRNA Screen;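 note: luminescence tracks full-length SMN protein made from the SMN2 reporter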
- MEASUREMENT PARAMETERS: HEK293T SMN2-luciferase reporter, siRNA knockdown, 72 h; actives lie on both sides
- Protocol: Spinal muscular atrophy (SMA) is the most common neuromuscular autosomal recessive disorder and one of the leading genetic causes of infant death. […] Briefly, 1 pmol of each siRNA was spotted to a well of a 384-well plate (Corning, Corning, NY) and 20 microL of serum-free DMEM containing […] of Lipofectamine RNAiMax (Life Technologies, Carlsbad, CA) was then added to each well. […] Raw luminescence reads were normalized to Ambion(R) Silencer(R) Negative Control #2 siRNA, then log10 transformed. […]
Among all 31,000 sequences or so, about 1,400 (4.5%) were called active. Many of the other results were omitted from the sample, so actives are more common in it than they were.
What median seed-adjusted z-score was measured for each of the following?
Give bare numbers.

| CONSTRUCT SEQUENCE | median seed-adjusted z-score |
| --- | --- |
| GCAUCUCAUCGGAAGAGGATT against MAP3K12 | -0.6 |
| CGUCUGACUUCGCUAGCAATT against HOXD11 | -0.185 |
| CAUGGUCCAUUAUUCGUGATT against ATP6V1A | -0.0106 |
| UUCCCAUAUUUAUUCGGACTT against AMH | -0.255 |
| GGGCGGUCAUGGUUUUGAATT against CHST13 | -0.447 |

Please give median seed-adjusted z-score for each item listed below.
1. GGAGGAAGGUCUCAACGUATT against TCFL5
2. GCCUCAGUCUUUGCAGUCUTT against CDCP2
3. GAAUAACCGUUGGUUUAAUTT against U2AF1
4. CUCAGAGAAUAAUCACAAATT against PER2
5. GGCUGUAAACUGCGCAUCATT against APOBEC2
6. CAUAGAAGCGGAUACUUAUTT against GALM
7. CAGUGUUCGUUCAACCCUATT against ZNF665

[1.52, 0.0708, 2.08, -0.113, 0.232, -0.111, 1.13]

Please give median seed-adjusted z-score for each item listed below.
1. UUUCCAAACAAGUACCUAATT against CKS2
2. GAAACAUCCGUGAAAGAGATT against RABL4
3. GAAAGACUUGUUUAUAUUATT against ADRB1
4. GCUGACCGCUGGGUGAUAATT against TMPRSS6
5. GCCUUAAAGACUUACCGAATT against USPL1
6. GAAAUUGACAUGUUGGAUATT against ANXA4

[0.0907, -0.154, 1.06, 1.29, -1.87, -0.0932]

Please give median seed-adjusted z-score for each item listed below.
1. GCUGGUUUAUUUAACUCGATT against E2F6
2. GGGUCAUGCAGCAUCAAUATT against ITGAM
3. GCAUGCUCAUGGGUUACAATT against ZNF451

1: -0.299; 2: -1.56; 3: 0

Please give median seed-adjusted z-score for each item listed below.
1. GGGUAUUCUGGGCAUGAAATT against NANS
2. GCAUCUAUGUAACAAAGAUTT against DLG4

1: -1.54; 2: -0.498

Please give median seed-adjusted z-score for each item listed below.
1. CAGACUCUCCGAUCUCUGATT against NRIP3
2. GCACGACUGUUACUGGACUTT against POLRMT

[-0.699, 0.0812]

====

- EXPERIMENT NOTES: Novel Modifiers of Survival Motor Neuron (SMN) Protein: Gene Identification via Genome-wide siRNA Screen;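 note: luminescence tracks full-length SMN protein made from the SMN2 reporter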
- MEASUREMENT PARAMETERS: HEK293T SMN2-luciferase reporter, siRNA knockdown, 72 h; actives lie on both sides
About 1,400 (4.5%) of roughly 31,000 sequences were called active.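 How the source made its calls: active means median seed-adjusted z-score above 1 or below -1; inactive means the rest.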 This is one part of a sample in which actives are shown more often than they occur.
API: response.call in active, inactive

| CONSTRUCT SEQUENCE | CLASSIFICATION |
| --- | --- |
| GGAUCAGCCGAGGAUGAAATT against PPP1R15A | inactive |

How was CGUCCAUGUUUAUCUACAATT against ENTPD2 classified in this test?
inactive

How was CCUUUACGUUCAAAUCACATT against ZNF268 classified in this test?
inactive

How was CAUUGAACGCAGUCCCUUUTT against FLNC classified in this test?
inactive

How was CCUCAUAAGUGUAAGAUAUTT against ZNF799 classified in this test?
active

How was GAAUUUGUAUGAGAGCAUUTT against CYTH3 classified in this test?
inactive

How was CGACCUAAUCAUUCACAGUTT against CYP26C1 classified in this test?
inactive

How was CCAGAGCAAAGGCUAUGAATT against ZNF350 classified in this test?
inactive

How was GCAACAGCAUUAUGACCCATT against COL10A1 classified in this test?
inactive

How was GGCCCUUCAUCGAUAGCUATT against APEX2 classified in this test?
inactive

How was CUGGCUACGUGAAUGUGCATT against ZDHHC12 classified in this test?
inactive

How was UCAUGCUCAUUGGGAAUAATT against RAB2B classified in this test?
inactive

====

- EXPERIMENT NOTES: Novel Modifiers of Survival Motor Neuron (SMN) Protein: Gene Identification via Genome-wide siRNA Screen;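 note: luminescence tracks full-length SMN protein made from the SMN2 reporter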
- MEASUREMENT PARAMETERS: HEK293T SMN2-luciferase reporter, siRNA knockdown, 72 h; actives lie on both sides
Among all 31,000 sequences or so, about 1,400 (4.5%) were called active.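 How the source made its calls: active means median seed-adjusted z-score above 1 or below -1; inactive means the rest.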 Many of the other results were omitted from the sample, so actives are more common in it than they were.
API: response.call in T for active, F for inactive

| CONSTRUCT SEQUENCE | CLASSIFICATION |
| --- | --- |
| GUCACGUCUUGAUACCUCUTT against ACAD8 | T |
| AGCUCAAGAAGUACACCAATT against CHST12 | F |

How was CAGGUACCGUCAUCACAUUTT against PCDHA7 classified in this test?
F

How was GGAAUACCUUAUUGAUGUATT against CST8 classified in this test?
F

How was CGACAGGGUAUCCAACUAATT against WASL classified in this test?
F

How was AGAUCGACGUGAUCAAGCATT against GNAS classified in this test?
F

====

- EXPERIMENT NOTES: Novel Modifiers of Survival Motor Neuron (SMN) Protein: Gene Identification via Genome-wide siRNA Screen;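 note: luminescence tracks full-length SMN protein made from the SMN2 reporter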
- MEASUREMENT PARAMETERS: HEK293T SMN2-luciferase reporter, siRNA knockdown, 72 h; actives lie on both sides
- Procedure: Spinal muscular atrophy (SMA) is the most common neuromuscular autosomal recessive disorder and one of the leading genetic causes of infant death. […] Briefly, 1 pmol of each siRNA was spotted to a well of a 384-well plate (Corning, Corning, NY) and 20 microL of serum-free DMEM containing […] of Lipofectamine RNAiMax (Life Technologies, Carlsbad, CA) was then added to each well. […] Raw luminescence reads were normalized to Ambion(R) Silencer(R) Negative Control #2 siRNA, then log10 transformed. […]
Out of some 31,000 sequences screened, about 1,400 (4.5%) were called active. The sample as a whole holds a higher share of actives than the screen did.
MEASUREMENT NAME: median seed-adjusted z-score

| CONSTRUCT SEQUENCE | MEASUREMENT NAME | RESULT |
| --- | --- | --- |
| GUAAGCAUUUUAAUUCCAATT against CLCA3 | median seed-adjusted z-score | 0.424 (inactive) |
| GGUUUUAACUGGAACUGGATT against HIF1AN | median seed-adjusted z-score | -0.0315 (inactive) |
| GUUAUUCCCUGUUCUCGAATT against ALDH5A1 | median seed-adjusted z-score | 0.339 (inactive) |

Please give median seed-adjusted z-score for each item listed below.
1. CCUCUUCCACCGCUACUUCTT against TREX2
2. GUUAAUCACAUACACCAAATT against GPR22

1. -0.918 (inactive)
2. 0.705 (inactive)

Please give median seed-adjusted z-score for each item listed below.
1. GAAUGCAGGGAGAAACUUATT against TRIM64
2. GGAAGAUUAUUACAGUCGATT against RERE
3. GCUUUGCAGUGAAUAUCGATT against SPINK5
4. GAUUCGCAGUUUAGAUGUUTT against PRKAA2
5. GCCUUGAACCUAGGACCAATT against PRAF2
6. CUAUGACUGGAUUAGCGUATT against BEST2
7. GAUGGGUAAAUGUACAUAUTT against KCNIP4
8. GCCUCAGAAUUUAAUCAAATT against ALB

["-0.024 (inactive)", "0.129 (inactive)", "0.26 (inactive)", "-0.194 (inactive)", "-0.326 (inactive)", "0.415 (inactive)", "-0.401 (inactive)", "-0.153 (inactive)"]

Please give median seed-adjusted z-score for each item listed below.
1. AGAGGAAGAUAGAUUUUCUTT against PFDN5
2. CAAUGGACAGAAUACACUUTT against ZNF614
3. GAUCCUAAAUCAUGACUUATT against COX6B1
4. CCUUGCAACAUGUUCGUGATT against KRIT1
5. GAAGCAUGAUGGACAGGAUTT against ISOC1

0.562 (inactive)
0.0971 (inactive)
-0.706 (inactive)
-0.447 (inactive)
0.104 (inactive)
